Provide the reported MIC of each item.
Tested on: K.pneumoniae 418
Assay: MIC, agar dilution method in Mueller Hinton agar
Format: cell-based
Details: Klebsiella pneumoniae; K.pneumoniae 418; inoculum = 10^4 CFU/spot; read-out: MIC

For orientation, consider the following solved cases.
For K.pneumoniae 418, provide MIC of "C[n+]1ccc(N2CC/C(=C\C3=C(C(=O)[O-])N4C(=O)[C@@H](NC(=O)/C(=N\OC5CCCC5)c5csc(N)n5)[C@H]4CC3)C2=O)cc1" please.
0.25 mg/L

Next compound: "C[n+]1cccc(N2CC/C(=C\C3=C(C(=O)[O-])N4C(=O)[C@@H](NC(=O)/C(=N\O)c5csc(N)n5)[C@H]4CC3)C2=O)c1"
≤ 0.06 mg/L

Now let's try a different one.
For K.pneumoniae 418, provide MIC of "Nc1nc(/C(=N/O)C(=O)N[C@@H]2C(=O)N3C(C(=O)O)=C(/C=C4\CCN(c5ccc(O)cc5)C4=O)CC[C@H]23)cs1" please.
0.12 mg/L
